Data origin: patent US20120225061A1

Target: Pim1 kinase (Homo sapiens, UniProt P11309)
Sequence (P11309 whole entry): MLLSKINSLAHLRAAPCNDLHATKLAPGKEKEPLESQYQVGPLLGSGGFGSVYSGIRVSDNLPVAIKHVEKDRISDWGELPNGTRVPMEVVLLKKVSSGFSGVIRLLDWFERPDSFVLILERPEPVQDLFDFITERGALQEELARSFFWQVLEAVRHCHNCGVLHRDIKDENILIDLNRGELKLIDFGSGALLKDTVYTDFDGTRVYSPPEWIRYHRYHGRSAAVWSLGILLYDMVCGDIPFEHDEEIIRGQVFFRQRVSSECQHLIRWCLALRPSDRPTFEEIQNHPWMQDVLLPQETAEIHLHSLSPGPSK
Test: KinaseGlo Pim1 ATP depletion assay
Type: biochemical
Details: Table 4, 2.5 nM PIM1, 20 μM ATP, 40 μM BAD peptide
pIC50: −log10 of the molar value.
ASSAY_ENDPOINT: pIC50

                                test_smiles   val
0  C[C@H]1C[C@@H](c2ccncc2NC(=O)c2nc(-c3ccccc3)cnc2N)C[C@@H](O)[C@]1(C)O  8.89

A: Cc1ccc(F)c(-c2ccc(N)c(C(=O)Nc3cnccc3[C@H]3C[C@@H](O)[C@](C)(O)[C@@H](C)C3)n2)n1
B: CC[C@]1(O)[C@H](O)C[C@H](c2ccncc2NC(=O)c2ccc(F)c(-c3c(F)cccc3F)n2)C[C@@H]1C
Input line: Response body: label of entry with the larger pIC50; valid values A , B . Use the label to indicate which entry you chose.
Output line: B

###

Tested on: KMS11 (human myeloma cell line)
Assay: Cell proliferation assay (CellTiter-Glo) in KMS11 cells
Type: cell-based
Settings: KMS-11, 72 h, Table 5, 3 days, read-out: KMS11-luc EC50
pEC50: −log10 of the molar value.
ASSAY_ENDPOINT: pEC50

                                   compound     val
0  C[C@@H]1C[C@H](c2ccncc2NC(=O)c2ccc(F)c(-c3c(F)cc(C4(O)CCCC4)cc3F)n2)C[C@H](O)[C@@]1(C)O [Example 79]  < 5.00
1  C[C@H]1C[C@@H](c2ccncc2NC(=O)c2nc(-c3cccc(F)n3)ccc2N)C[C@@H](O)[C@]1(C)O [Example 135]  < 5.00

Input line: Using the record for C[C@@H]1C[C@H](c2ccncc2NC(=O)c2ccc(F)c(-c3c(F)cc(CN4CCCC4=O)cc3F)n2)C[C@H](O)[C@@]1(C)O [Example 78] , state its measured pEC50.
Output line: < 5.00

###

Target: Pim3 kinase (Homo sapiens, UniProt Q86V86)
Assay: KinaseGlo Pim3 ATP depletion assay
Assay type: biochemical
Details: Table 4, 40 μM ATP, 100 μM BAD peptide
ASSAY_ENDPOINT: IC50 (nM)

>>> df
                                test_smiles                              assay_target   val
0  CC[C@]1(O)[C@H](O)C[C@H](c2ccncc2NC(=O)c2nc(-c3c(F)cccc3F)ncc2N)C[C@@H]1C  Pim3 kinase (Homo sapiens, UniProt Q86V86)   1.7
1  C[C@H]1C[C@@H](c2ccncc2NC(=O)c2nc(Br)ccc2N)C[C@@H](O)[C@]1(C)O  Pim3 kinase (Homo sapiens, UniProt Q86V86)   9.3
2  C[C@H]1C[C@@H](c2ccncc2NC(=O)c2ccnc(-c3c(F)cccc3F)n2)C[C@@H](O)[C@@]1(O)CO  Pim3 kinase (Homo sapiens, UniProt Q86V86)   4.5
3  CC[C@]1(O)[C@H](C)C[C@H](c2ccncc2NC(=O)c2ccc(F)c(-c3c(F)cccc3F)n2)C[C@@H]1O  Pim3 kinase (Homo sapiens, UniProt Q86V86)   434
4  C[C@H]1C[C@@H](c2ccncc2NC(=O)c2cncc(-c3ccccc3)n2)C[C@@H](O)[C@]1(C)O  Pim3 kinase (Homo sapiens, UniProt Q86V86)   307
5  C[C@H]1C[C@@H](c2ccncc2NC(=O)c2ccc(F)c(-c3ccc(C#N)cc3F)n2)C[C@@H](O)[C@]1(C)O  Pim3 kinase (Homo sapiens, UniProt Q86V86)  12.1

A: CC(=O)OC[C@]1(O)[C@H](O)C[C@H](c2ccncc2NC(=O)c2ccc(F)c(-c3c(F)cccc3F)n2)C[C@@H]1C
B: C[C@@H]1C[C@H](c2ccncc2NC(=O)c2ccc(F)c(-c3c(F)ccc(N)c3F)n2)C[C@H](O)[C@@]1(C)O
Input line: Response body: label of entry with the larger IC50; valid values A , B . Use the label to indicate which entry you chose.
Output line: B

P: Cc1ccc(F)c(-c2ccc(N)c(C(=O)Nc3cnccc3[C@H]3C[C@@H](O)[C@](C)(O)[C@@H](C)C3)n2)n1
Q: COc1cc(F)c(-c2cccc(C(=O)Nc3cnccc3[C@H]3C[C@@H](O)[C@](C)(O)[C@@H](C)C3)n2)c(F)c1
Input line: Which value of IC50 is smaller, the one for P or the one for Q ? Use the label to indicate which entry you chose.
Output line: Q
